ASSAY REMARKS: chemical genetic growth profiling, strain panel (AID 1159580);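 also: tested at 20 µM; growth read once vehicle control cultures reached saturation at 30 °C; 1 = growth at the plate median or of vehicle wells; lower values mean less growth of the strain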
CONDITION LABEL: S. cerevisiae deletion strains, growth OD, locus YLR268W, strain sec22, hits give low values
About 2,000 (36%) of roughly 5,500 compounds were called active. Inconclusive results (about 18%) are left out. This is one part of the list.
EXPERIMENTAL READOUT: normalized growth
Write no unit; give the number alone.

[
  {
    "COMPOUND": "COC(=O)[C@H]1[C@H]2C[C@H]3c4[nH]c5cc(OC)ccc5c4CCN3C[C@H]2C[C@@H](OC(=O)c2cc(OC)c(OC)c(OC)c2)[C@@H]1OC",
    "normalized growth": 0.987
  },
  {
    "COMPOUND": "O=C(O)c1cc(O)ccc1O",
    "normalized growth": 0.986
  }
]

Query block: Entry CC1(C)S[C@@H]2C(N3C(=O)[C@@H](c4ccccc4)NC3(C)C)C(=O)N2[C@H]1C(=O)O (some centres not stated) needs its normalized growth filled in; supply it.
Result block: 1.02

Query block: Please supply the value of reported normalized growth for the item CC1(C)O[C@@H]2CC3C4C[C@H](F)C5=CC(=O)CC[C@]5(C)C4[C@@H](O)C[C@]3(C)[C@]2(C(=O)CO)O1 (some centres not stated)
Result block: 1.01

Query block: Please report normalized growth for the following compound: O=C(Oc1ccccc1C(=O)O)c1ccccc1O
Result block: 0.978

Query block: Check the records and state normalized growth for NCC(O)CC(=O)O (configuration not stated)
Result block: 0.998

Query block: Please supply the value of reported normalized growth for the item COc1cc(O)c2c(=O)cc(-c3ccc(O)cc3)oc2c1
Result block: 1.01

====

ASSAY REMARKS: chemical genetic growth profiling, strain panel (AID 1159580);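 also: tested at 20 µM; growth read once vehicle control cultures reached saturation at 30 °C; 1 = growth at the plate median or of vehicle wells; lower values mean less growth of the strain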
CONDITION LABEL: S. cerevisiae deletion strains, growth OD, locus YKR091W, strain srl3, hits give low values
In all, about 5,500 compounds went through this assay and about 2,000 (36%) were called active. Not shown: some 18% with an inconclusive outcome. This is one part of the list.
EXPERIMENTAL READOUT: normalized growth
Keep it simple and answer with nothing but the number.

Reference set, count: 8
[
  {
    "COMPOUND": "N#Cc1c(Cl)cccc1Cl",
    "normalized growth": 0.978
  },
  {
    "COMPOUND": "C[C@@H]1CC[C@@]23CCC4(C)[C@@](C=CC5[C@@]6(C)CC[C@H](O)C(C)(C)C6CC[C@]54C)(OC2=O)C3[C@H]1C (stereo partly drawn)",
    "normalized growth": 1
  },
  {
    "COMPOUND": "O=S(=O)(O)O",
    "normalized growth": 0.977
  },
  {
    "COMPOUND": "COc1nc(NC(C)C)nc(NC(C)C)n1",
    "normalized growth": 1.02
  },
  {
    "COMPOUND": "C[C@H]1O[C@@H](O[C@H]2[C@@H](O)C[C@H](O[C@H]3[C@@H](O)C[C@H](O[C@H]4CC[C@]5(C)C6CC[C@]7(C)[C@@H](C8=CC(=O)OC8)CC[C@]7(O)C6CC[C@@H]5C4)O[C@@H]3C)O[C@@H]2C)C[C@H](O)[C@@H]1O (stereo partly drawn)",
    "normalized growth": 0.967
  },
  {
    "COMPOUND": "COC1C(O)C(O[C@H]2CC[C@]3(C=O)C4C(CC[C@]3(O)C2)[C@@]2(O)CC[C@H](C3=CC(=O)OC3)[C@@]2(C)C[C@H]4OC(C)=O)OC(C)C1OC(C)=O (stereo partly drawn)",
    "normalized growth": 1.02
  },
  {
    "COMPOUND": "NC[C@@H]1O[C@H](O[C@@H]2[C@@H](CO)OC(O[C@@H]3[C@@H](O)[C@H](N)C[C@H](N)[C@H]3O[C@H]3O[C@H](CO)[C@@H](O)[C@H](O)[C@H]3N)[C@@H]2O)[C@H](N)[C@@H](O)[C@@H]1O (stereo partly drawn)",
    "normalized growth": 0.989
  },
  {
    "COMPOUND": "C[C@@H]1CC[C@@]23CCC4(C)[C@@](C=CC5[C@@]6(C)CCC(=O)C(C)(C)C6CC[C@]54C)(OC2=O)C3[C@H]1C (stereo partly drawn)",
    "normalized growth": 0.994
  }
]

Query block: # return recorded normalized growth for input CC(C)(C)NCC(O)COc1cccc2c1C[C@H](O)[C@H](O)C2 (stereo partly drawn)
Result block: 0.993

Query block: Quick one: give measured normalized growth for COC1=CC(=O)C=C(OC)C1=O
Result block: 1

Query block: Identify measured normalized growth associated with CC1(C)C(=O)CC[C@@]2(C)C1C[C@@H](O)[C@@]1(C)C3=CC(=O)O[C@@H](c4ccoc4)[C@]3(C)CCC21 (stereo partly drawn)
Result block: 1.03

Query block: Quote normalized growth reported for CCc1ccc2c(O)c3c(cc2c1C(=O)OC)C(=O)c1c(O)ccc(O)c1C3=O please.
Result block: 0.995

Query block: Give a short answer stating reported normalized growth for COC(=O)C(N)CS (stereo not drawn) .
Result block: 0.99
